The measured values listed here are drawn from ChEMBL document CHEMBL1134843.

Biological target: Receptor tyrosine-protein kinase erbB-2 (Homo sapiens)
Sequence (P04626 whole entry): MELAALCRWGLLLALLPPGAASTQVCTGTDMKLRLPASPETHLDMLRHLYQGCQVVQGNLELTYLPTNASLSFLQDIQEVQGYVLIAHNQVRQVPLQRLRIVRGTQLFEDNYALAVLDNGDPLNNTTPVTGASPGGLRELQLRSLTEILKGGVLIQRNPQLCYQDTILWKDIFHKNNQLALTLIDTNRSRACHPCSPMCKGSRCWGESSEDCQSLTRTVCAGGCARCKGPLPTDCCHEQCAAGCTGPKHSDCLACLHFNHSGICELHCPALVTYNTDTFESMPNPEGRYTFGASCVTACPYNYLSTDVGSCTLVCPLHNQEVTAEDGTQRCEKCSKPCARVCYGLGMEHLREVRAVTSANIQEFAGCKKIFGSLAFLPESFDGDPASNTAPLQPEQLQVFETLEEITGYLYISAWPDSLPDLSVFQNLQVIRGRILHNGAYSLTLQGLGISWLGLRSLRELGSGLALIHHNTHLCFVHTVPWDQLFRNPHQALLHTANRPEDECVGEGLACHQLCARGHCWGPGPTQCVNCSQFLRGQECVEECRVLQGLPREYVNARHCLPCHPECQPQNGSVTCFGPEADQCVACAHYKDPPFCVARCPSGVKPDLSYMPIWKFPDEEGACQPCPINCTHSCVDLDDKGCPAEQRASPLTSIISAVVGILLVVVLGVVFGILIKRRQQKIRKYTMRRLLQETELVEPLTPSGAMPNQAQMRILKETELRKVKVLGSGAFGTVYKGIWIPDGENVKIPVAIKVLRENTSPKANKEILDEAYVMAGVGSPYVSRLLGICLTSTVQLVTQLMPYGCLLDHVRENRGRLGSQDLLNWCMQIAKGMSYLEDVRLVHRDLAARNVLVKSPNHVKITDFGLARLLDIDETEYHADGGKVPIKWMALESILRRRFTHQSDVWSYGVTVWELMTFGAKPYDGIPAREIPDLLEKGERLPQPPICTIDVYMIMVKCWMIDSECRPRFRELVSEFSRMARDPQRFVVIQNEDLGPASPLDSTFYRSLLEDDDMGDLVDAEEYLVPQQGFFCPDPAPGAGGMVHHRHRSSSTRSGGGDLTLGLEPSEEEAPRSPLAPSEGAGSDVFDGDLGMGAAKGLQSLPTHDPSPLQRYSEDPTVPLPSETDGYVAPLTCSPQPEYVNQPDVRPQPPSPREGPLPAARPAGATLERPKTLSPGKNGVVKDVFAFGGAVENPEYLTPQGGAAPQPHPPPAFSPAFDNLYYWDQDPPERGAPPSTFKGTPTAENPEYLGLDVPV
Experiment: Inhibition of heregulin-stimulated autophosphorylation of erbB2 in MDA-MB 453 cells
Assay type: cell-based
Readout Kind: IC50 (nM)

Look over these answered cases.
O=C(/C=C/C(=O)Nc1cc2c(Nc3cccc(Br)c3)ncnc2cn1)NCCCn1ccnc1 = 8.1
CN(C)CCCNC(=O)/C=C/C(=O)Nc1cc2c(Nc3cccc(Br)c3)ncnc2cn1 = 13

(A) O=C(/C=C/C(=O)Nc1cc2c(Nc3cccc(Br)c3)ncnc2cn1)NCCCN1CCOCC1
(B) CN(C)CCCNC(=O)/C=C/C(=O)Nc1ccc2ncnc(Nc3cccc(Br)c3)c2c1
(C) CCN(CC)CCCNC(=O)/C=C/C(=O)Nc1cc2c(Nc3cccc(Br)c3)ncnc2cn1
(D) O=C(/C=C/C(=O)Nc1cc2c(Nc3ccc(F)c(Cl)c3)ncnc2cn1)NCCCN1CCOCC1
Qu. Order the records, beginning with the lowest IC50 and ending with the highest. # output: labels, in the requested order
Ans. A, C, D, B
(A: 5 nM, C: 14 nM, D: 24 nM, B: 207 nM)
